Recorded values, source PubChem BioAssay (NCI).

Each entry below carries its recorded growth inhibition.
- Assay Notes: NCI Yeast Anticancer Drug Screen. Data for the cln2 rad14 strain (AID 165);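 note: 0% = growth equal to vehicle treated cultures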
- Protocol Conditions: S. cerevisiae cln2 rad14 strain, at 50.0 µM, active compounds read high
The panel holds about 79,000 compounds, 15% with a hit somewhere; the sample as a whole holds those more often. The source made the active and inactive calls. Cut-off read from the data, not from the text of the source: active = growth inhibition above about 70%; inactive = the rest.

## Task growth inhibition lookup needed for CC(C#N)OCCO (stereo unspecified) , thanks.
## Result -1.85% (inactive)

## Task growth inhibition lookup needed for CCCCCCC1CCC(OC(C)=O)CC1 (stereo unspecified) , thanks.
## Result -0.9% (inactive)

***
## Task growth inhibition lookup needed for COc1ncnc2c(NC3OC(CO)C(O)C3O)ncnc12 (stereo unspecified) , thanks.
## Result 12.4% (inactive)

## Task growth inhibition lookup needed for CCOc1ccc2nc(NC(=O)C(=O)C(C#N)CC(C)(C)C=O)sc2c1 (stereo unspecified) , thanks.
## Result 7.7% (inactive)

## Task growth inhibition lookup needed for "COc1cccc([N+](=O)[O-])c1" , thanks.
## Result -5.9% (inactive)

## Task growth inhibition lookup needed for "N#CC1=C(Nc2ccccc2)CCC1" , thanks.
## Result -38.8% (inactive)

## Task growth inhibition lookup needed for "c1ccc2cc3c(cc2c1)[nH]c1ccccc13" , thanks.
## Result -3.1% (inactive)

## Task growth inhibition lookup needed for "CCN(CC)C(=O)C1CCN(Cc2c[nH]c3ccccc23)CC1" , thanks.
## Result -53% (inactive)

## Task growth inhibition lookup needed for CCOc1ccc(C(CC)c2cc3c(cc2OC)OCO3)cc1 (stereo unspecified) , thanks.
## Result -42.8% (inactive)

## Task growth inhibition lookup needed for "O=C1C/C(=C/c2ccccc2[N+](=O)[O-])C(=O)N1c1ccccc1" , thanks.
## Result -36.1% (inactive)

## Task growth inhibition lookup needed for CC1c2ccccc2CC(CCN(C)C)c2ccccc21 (stereo unspecified) , thanks.
## Result 13.4% (inactive)
